# assay-text: yeast display, Sf9 membrane polyspecificity reagent, FACS + sequencing; frameworks hold sequencing errors

{"sequence": "QVQLVESGGGLLQAGGSLRLSCAASGRTFSGYTMGWYRQAPGKERELLATIRDRGGSTYYADSVKGRFTISRDNAKNTVYLQMNSLTPEDSAVYYCAARRGRRYYYWGQGTQVTVSS", "polyreactivity (PSR sort gate)": "high polyreactivity"}
{"sequence": "QVNHVESGGGLVQAGGSLRLICAASGSTYNNAMGWYRQAPGKERELVAAIRWSGGSTYYADSVKGRFTISRDNANYTVYLQMNSLNPEDTAVYYCASAYRWSRKRYNDYDYWGQGSQVTVSS", "polyreactivity (PSR sort gate)": "high polyreactivity"}
{"sequence": "QVQLVESGGGLVQAGGSLRLSCAASGFIFNGNAMGWYIQAPGKERELVVAISKSGGRTYYADSVKGRFTISRDNAKYTVYLQMNSLKPEDTAVYDCARRTYTRMYWGQGTQVTVSS", "polyreactivity (PSR sort gate)": "high polyreactivity"}
{"sequence": "QVHLVESCGGLVQAGGSLRLSCAASGNTFVYNDMGWYRQAPGKERELVDDIRYSGSTYYADSVKGRFTISRDNAKNTVYLQMNSLKPEDTAVYYCAKAYYVLSWMGYWGQGTQVTVSS", "polyreactivity (PSR sort gate)": "low polyreactivity"}
{"sequence": "QVQLVESGGGLVQAGGSLRLSCAASGRIFDGYAIGWYRQAPGKERDLVAAISWGGGSTYYADSVKGRFTISRDNAKNTVYLQMNSLKPDDTAVYYCAGDGIWAREMDYWGQGTQVTVSS", "polyreactivity (PSR sort gate)": "low polyreactivity"}
{"sequence": "QVQLVESGGGLDQAGGSLRLSCAASGRIFRRYAMGWYRQAPGKERELVAAISTRGGSTYYADSVKGRFTISRDHAKNTVYLQMNSLKPEDTAVYYCNAEARSRRYRYDYWGQGTQVTVSS", "polyreactivity (PSR sort gate)": "high polyreactivity"}
{"sequence": "QVQLVESGGGLVQAGGSLRLSCAASGFTYIDYAMGWYRQAPGKERELVAAITSRGGTTYYADSVKGRFTISRDNAKNTVYLLMNSLKPEDTAVYYCNAGSSFWVSRIGYDYWGQGTQVTVSS", "polyreactivity (PSR sort gate)": "high polyreactivity"}
{"sequence": "QVQLVESGGGLVQAGGSLRLSCAASGFTFYKNAMGWYRQAPGKERELVASISSGGSTKYADSVKGRFTISRDNAKNTVYLQMNSLKPEDTAVYYCAADSGRNRMYYWGQGTQVTVSS", "polyreactivity (PSR sort gate)": "high polyreactivity"}
{"sequence": "QVQLVESGGGLVQAGGSLRLSCAASGSTFRANAMGWYRQAPGTERELVAVISSGGRTYYADSVKGRFTMSRDNAKTTVYLQMNSLKPEDTAVYYCAKDDYSVWYYYDYDYWGQGTQVTVSS", "polyreactivity (PSR sort gate)": "high polyreactivity"}
{"sequence": "QVQLVESGGGLVQAGGSLRLSCAASGRTFSIYAMGWYRQAPGKERELVAAISNGGRTKYADSVKGRFTISRDNAKNTVYLQMNSLKPEDTAVYYCAASRPRPPSSRRMDYWGQGTQVTVSS", "polyreactivity (PSR sort gate)": "high polyreactivity"}
{"sequence": "QVQLVESGGGLVQAGGSLRLSCAASGIIFSQYAMGWYRQAPGKERELVASISRSGGITYYADSVKGRFTISRDNAKNTVYLQMNSLKPEDTAVYYCNAAKACREQWTSFDYWGQGTQVTVSS", "polyreactivity (PSR sort gate)": "high polyreactivity"}
